Reported values of protein stability index for individual entries
B1: SMG5 (parent)
chain: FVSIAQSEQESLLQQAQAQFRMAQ

variants of: B1; assay: protein stability index of a GFP-peptide fusion (GPS, HEK-293T) (PSI 1-6); higher = more stable; conditions: c terminus: a fixed tail appended;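 note: lentivirally expressed fusions sorted by FACS into six bins by GFP to DsRed ratio, PSI derived from sequencing read proportions per bin multiplied by bin number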
Field format: numeric only.

# annotated cases, reported protein stability index shown
# sequence-record, protein stability index
rows = [
    ("FVSIAQSEQESLLQQAEAQFRMAQ [Q17E]", 2.22),
    ("FVSIAQSEQESLLQQAQAQFRMVQ [A23V]", 2.02),
    ("FVSIAQSEQESLNQQAQAQFRMAQ [L13N]", 2.74),
    ("FVSIAQSEQESLLQQCQAQFRMAQ [A16C]", 1.36),
    ("FVSIAQSEQESLLQNAQAQFRMAQ [Q15N]", 2.5),
    ("FVSIAQSEQESLLQQAQAQFRHAQ [M22H]", 2.26),
    ("FVSIAQSEQESLLQQAQAQFRIAQ [M22I]", 2.14),
    ("FCSIAQSEQESLLQQAQAQFRMAQ [V2C]", 2.82),
]

// query Which protein stability index is listed for LVSIAQSEQESLLQQAQAQFRMAQ [F1L] ?
// result 3.3

// query Which protein stability index is listed for FVSIAQSEQESLLQQAQAFFRMAQ [Q19F] ?
// result 1.35

// query Which protein stability index is listed for FVSIAQSELESLLQQAQAQFRMAQ [Q9L] ?
// result 3.25

// query Which protein stability index is listed for FVSIAQSEQESLLQQAQNQFRMAQ [A18N] ?
// result 3.02

// query Which protein stability index is listed for VVSIAQSEQESLLQQAQAQFRMAQ [F1V] ?
// result 3.88
